Ref: patent US20120039844A1

- Tested on: NK cells
- method-description: Protection of NK cells from apoptosis inflicted by mononuclear phagocytes
- Type: cell-based, human
- conditions-used: Homo sapiens; overnight incubation with mononuclear phagocytes; six experiments; FIG. 2; read-out: ED50 for protection of NK cells
recorded-endpoint: EC50
Output should be the measured figure followed by the unit it is expressed in.

I have this molecule here, CNCCc1c[nH]cn1 , and I need its recorded EC50.
2200 nM
